Tested on: human apolipoprotein B mRNA
assay explanation: Inhibition of human apolipoprotein B mRNA levels in HepG2 cells, quantitative real-time PCR
Type: cell-based
run conditions: HepG2 cells; human apolipoprotein B mRNA; oligonucleotides targeting genomic sequence SEQ ID NO 334; averages from two experiments
In the oligonucleotide strings, read from the 5' end, every base follows the letter of its sugar. An asterisk marks phosphorothioate; unmarked linkages are phosphodiester. Other units and linkages are bracketed, terminal groups are in braces. A string of capitals states the bases alone. e = 2'-O-(2-methoxyethyl) (MOE); [5mC] = 5-methylcytosine; d = 2'-deoxy (DNA)

substance	measurement target	unit string	% INHIB
301183 (antisense eT*e[5mC]*eT*eG*eG*dG*d[5mC]*d[5mC]*dA*dG*dG*dA*dA*dG*dA*e[5mC]*eA*e[5mC]*eG*eA) [compound 301183]	human apolipoprotein B mRNA	%	68
301117 (antisense eT*eA*eG*eA*e[5mC]*dA*dA*dT*dT*dG*dA*dG*dA*d[5mC]*dT*e[5mC]*eA*eG*eA*eA) [compound 301117]	human apolipoprotein B mRNA	%	39
301127 (eT*e[5mC]*e[5mC]*eT*eA*dG*dA*dG*d[5mC]*dA*d[5mC]*dT*dA*dT*d[5mC]*eA*eA*eG*eT*eA; antisense) [compound 301127]	human apolipoprotein B mRNA	%	41
301135 (eA*eA*eA*eT*eA*d[5mC]*dA*d[5mC]*dA*d[5mC]*d[5mC]*dT*dG*d[5mC]*dT*e[5mC]*eA*eT*eG*eT; antisense) [compound 301135]	human apolipoprotein B mRNA	%	20
301093 (antisense eT*eG*eG*eA*eT*dT*dT*dG*dG*dA*dT*dA*d[5mC]*dA*d[5mC]*eA*eA*eG*eT*eT) [compound 301093]	human apolipoprotein B mRNA	%	42
301126 (eG*eG*e[5mC]*eT*eA*dA*dT*dA*dA*dA*dT*dA*dG*dG*dG*eT*eA*eG*eT*eT; antisense) [compound 301126]	human apolipoprotein B mRNA	%	22

###

System: rabbit apolipoprotein B mRNA
assay explanation: Inhibition of rabbit apolipoprotein B mRNA levels in primary rabbit hepatocytes, real-time PCR
Type: cell-based
Set-up: concentration or dose not given beside the values
Description: Primary rabbit hepatocytes were purchased from Invitro Technologies (Gaithersburg, Md.) and maintained in Dulbecco's modified Eagle's medium (Gibco). When purchased, the cells had been seeded into 96-well plates for use in RT-PCR analysis and were confluent. […]
In the oligonucleotide strings, read from the 5' end, every base follows the letter of its sugar. An asterisk marks phosphorothioate; unmarked linkages are phosphodiester. Other units and linkages are bracketed, terminal groups are in braces. A string of capitals states the bases alone. e = 2'-O-(2-methoxyethyl) (MOE); [5mC] = 5-methylcytosine; d = 2'-deoxy (DNA)
measurement kind: % INHIB of rabbit apolipoprotein B mRNA levels (%)

>>> df
                                  substance  unit_string  value_reported
0  233166 (antisense eG*eG*eA*eT*e[5mC]*dA*d[5mC]*dA*dT*dG*dA*d[5mC]*dT*dG*dA*eA*eT*eG*e[5mC]*eT) [compound 233166]            %              82
1  233172 (antisense eA*eT*eG*eG*eA*dA*dG*dA*d[5mC]*dT*dG*dG*d[5mC]*dA*dG*e[5mC]*eT*e[5mC]*eT*eA) [compound 233172]            %              86
2  233159 (antisense eT*e[5mC]*eA*eG*eT*dG*d[5mC]*d[5mC]*d[5mC]*dA*dA*dG*dA*dT*dG*eT*e[5mC]*eA*eG*e[5mC]) [compound 233159]            %               0
3  233150 (antisense eG*e[5mC]*eG*eT*eT*dG*dT*d[5mC]*dT*d[5mC]*d[5mC]*dG*dA*dT*dG*eT*eT*e[5mC]*eT*eG) [compound 233150]            %              20
4  233157 (antisense eA*eG*eT*eA*eG*dT*dT*dA*dG*dT*dT*dT*d[5mC]*dT*d[5mC]*e[5mC]*eT*eT*eG*eG) [compound 233157]            %               0
5  233160 (antisense eA*eT*eT*eG*eG*dA*dA*dT*dA*dA*dT*dG*dT*dA*dT*e[5mC]*e[5mC]*eA*eG*eG) [compound 233160]            %              81

###

Test system: apolipoprotein B mRNA
assay explanation: ob/ob mice (Example 50): apolipoprotein B mRNA levels in liver
Format: in vivo, mouse
run conditions: liver, high fat high cholesterol diet, 50 mg/kg i.p. twice a week, six weeks
In the oligonucleotide strings, read from the 5' end, every base follows the letter of its sugar. An asterisk marks phosphorothioate; unmarked linkages are phosphodiester. Other units and linkages are bracketed, terminal groups are in braces. A string of capitals states the bases alone. e = 2'-O-(2-methoxyethyl) (MOE); [5mC] = 5-methylcytosine; d = 2'-deoxy (DNA)
mRNA % control ApoB for assorted substances
measurement kind: mRNA % control ApoB

In [3]: df
Out[3]:
                                  substance     measurement_kind   value_reported
0  116847 (antisense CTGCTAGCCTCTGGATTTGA; listed as DNA, chemistry not given here) [compound 116847]  mRNA % control ApoB   77.0 % control
1  141923 (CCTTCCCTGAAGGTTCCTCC; listed as DNA, chemistry not given here) [compound 141923]  mRNA % control ApoB  100.0 % control
2  147764 (eG*eT*e[5mC]*e[5mC]*e[5mC]*dT*dG*dA*dA*dG*dA*dT*dG*dT*d[5mC]*eA*eA*eT*eG*e[5mC]) [compound 147764]  mRNA % control ApoB   43.1 % control
3  147483 (ATGTCAATGCCACATGTCCA; phosphorothioate, 2'-MOE wings, chemistry not fully specified) [compound 147483]  mRNA % control ApoB   25.2 % control

###

Tested on: human apolipoprotein B mRNA
assay explanation: Inhibition of human apolipoprotein B mRNA levels in HepG2 cells, quantitative real-time PCR
Type: cell-based
run conditions: Table 19 dose response; HepG2 cells, 37 nM; normalized to untreated control
In the oligonucleotide strings, read from the 5' end, every base follows the letter of its sugar. An asterisk marks phosphorothioate; unmarked linkages are phosphodiester. Other units and linkages are bracketed, terminal groups are in braces. A string of capitals states the bases alone. e = 2'-O-(2-methoxyethyl) (MOE); [5mC] = 5-methylcytosine; d = 2'-deoxy (DNA)
Use 1 when the recorded % inhibition 37 nM is no lower than 60%; use -1 when it is lower.

substance	class name
301029 (eG*eG*e[5mC]*eT*eG*dG*d[5mC]*dT*d[5mC]*dA*d[5mC]*dT*dG*dT*dA*eT*eG*eG*eT*eT; antisense) [compound 301029]	-1
301037 (e[5mC]*eA*eG*e[5mC]*eT*dT*dT*dG*dG*dT*dG*d[5mC]*dA*dG*dG*eT*e[5mC]*e[5mC]*eA*eG; antisense) [compound 301037]	1
281625 (antisense eA*eG*eG*eT*eT*dA*d[5mC]*d[5mC]*dA*dG*d[5mC]*d[5mC]*dA*d[5mC]*dA*eT*eG*e[5mC]*eA*eG) [compound 281625]	1
301014 (e[5mC]*eA*eG*e[5mC]*e[5mC]*d[5mC]*d[5mC]*dG*d[5mC]*dA*dG*dG*dT*d[5mC]*d[5mC]*e[5mC]*eG*eG*eT*eG; antisense) [compound 301014]	1
301030 (eA*eG*eG*e[5mC]*eT*dG*dG*d[5mC]*dT*d[5mC]*dA*d[5mC]*dT*dG*dT*eA*eT*eG*eG*eT; antisense) [compound 301030]	1

###

Test system: human apolipoprotein B mRNA
assay explanation: Inhibition of human apolipoprotein B mRNA levels in HepG2 cells, quantitative real-time PCR
Assay type: cell-based
run conditions: HepG2 cells treated with 150 nM of compound; averages from two experiments; quantitative real-time PCR
In the oligonucleotide strings, read from the 5' end, every base follows the letter of its sugar. An asterisk marks phosphorothioate; unmarked linkages are phosphodiester. Other units and linkages are bracketed, terminal groups are in braces. A string of capitals states the bases alone. e = 2'-O-(2-methoxyethyl) (MOE); [5mC] = 5-methylcytosine; d = 2'-deoxy (DNA)
measurement kind: % INHIB (inhibition of human apolipoprotein B mRNA levels) (%)

substance	unit string	value reported
271021 (antisense eG*eA*eG*eT*e[5mC]*dT*d[5mC]*dT*dG*dA*dG*dT*d[5mC]*dA*d[5mC]*e[5mC]*eT*e[5mC]*eA*e[5mC]) [compound 271021]	%	38
271037 (eA*eA*eG*eA*e[5mC]*d[5mC]*d[5mC]*dA*dG*dA*dA*dT*dG*dA*dA*eT*e[5mC]*e[5mC]*eG*eG; antisense) [compound 271037]	%	23
281627 (antisense e[5mC]*e[5mC]*eA*eG*eA*dG*dA*dG*d[5mC]*dG*dA*dG*dT*dT*dT*e[5mC]*e[5mC]*e[5mC]*eA*eT) [compound 281627]	%	82
270998 (antisense e[5mC]*eG*e[5mC]*eT*eG*dA*dT*d[5mC]*d[5mC]*d[5mC]*dT*d[5mC]*dG*d[5mC]*d[5mC]*eA*eT*eG*eT*eT) [compound 270998]	%	1
270997 (antisense eG*e[5mC]*eA*e[5mC]*eT*dG*dA*dG*dG*d[5mC]*dT*dG*dT*d[5mC]*d[5mC]*eA*e[5mC]*eA*e[5mC]*eT) [compound 270997]	%	24
271030 (e[5mC]*eA*eG*eT*eT*dA*dG*dA*dA*d[5mC]*dA*d[5mC]*dT*dG*dT*eG*eG*e[5mC]*e[5mC]*e[5mC]; antisense) [compound 271030]	%	52
271035 (eT*e[5mC]*eG*eT*eA*d[5mC]*dT*dG*dT*dG*d[5mC]*dT*d[5mC]*d[5mC]*d[5mC]*eA*eG*eA*eG*eG; antisense) [compound 271035]	%	23
281612 (antisense e[5mC]*eA*eA*eG*eG*dT*d[5mC]*dA*dT*dA*d[5mC]*dT*d[5mC]*dT*dG*e[5mC]*e[5mC]*eG*eA*eT) [compound 281612]	%	83
271041 (e[5mC]*e[5mC]*eA*eT*eA*dT*d[5mC]*d[5mC]*dA*dT*dG*d[5mC]*d[5mC]*d[5mC]*dA*e[5mC]*eG*eG*eT*eG; antisense) [compound 271041]	%	37
281608 (antisense eG*eT*eA*eG*eA*dG*dA*d[5mC]*d[5mC]*dA*dA*dA*dT*dG*dT*eA*eA*eT*eG*eT) [compound 281608]	%	62
271018 (antisense eA*eT*eG*eT*eG*dA*dA*dA*d[5mC]*dT*dT*dG*dT*d[5mC]*dT*e[5mC]*eT*e[5mC]*e[5mC]*e[5mC]) [compound 271018]	%	44
